System: Carbonic anhydrase 9 (Homo sapiens, UniProt Q16790) | Read-out: pKi | Origin: multiple publications
pKi: −log10 of the molar value.
Classification by pKi follows these ranges: low group = under 7, middle group = from 7 up to 8, high group = 8 and over

In [3]: df
Out[3]:
                                    compound                              study_system      category
 0            O=C(O)c1cc(-c2ccc(F)cc2)n[nH]1  Carbonic anhydrase 9 (Homo sapiens, UniProt Q16790)     low group
 1  CC(C)CSc1cc2c(cc1S(N)(=O)=O)S(=O)(=O)NCN2  Carbonic anhydrase 9 (Homo sapiens, UniProt Q16790)     low group
 2  NS(=O)(=O)c1ccc(C(=O)N2CCNC(CCO)C2)cc1 (racemic)  Carbonic anhydrase 9 (Homo sapiens, UniProt Q16790)  middle group
 3  CNCC(O)COc1ccc(C(=O)NCCc2ccc(S(N)(=O)=O)cc2)cc1 (stereo not drawn)  Carbonic anhydrase 9 (Homo sapiens, UniProt Q16790)    high group
 4  COC(=O)[C@H]1O[C@@H](On2cc(CNC(=O)c3ccc(S(N)(=O)=O)cc3)nn2)[C@H](O)[C@@H](O)[C@@H]1O  Carbonic anhydrase 9 (Homo sapiens, UniProt Q16790)  middle group
 5     O=C(O)c1ccccc1S(=O)(=O)NCc1ccc(Br)cc1  Carbonic anhydrase 9 (Homo sapiens, UniProt Q16790)     low group
 6  NS(=O)(=O)c1ccc(NC(=O)/C=C/c2cccc(F)c2)cc1  Carbonic anhydrase 9 (Homo sapiens, UniProt Q16790)    high group
 7  CC(=O)NS(=O)(=O)c1ccc(N2C(=O)/C(=C\c3cn(C(C)=O)c4ccccc34)N=C2c2ccccc2)cc1  Carbonic anhydrase 9 (Homo sapiens, UniProt Q16790)     low group
 8  Nc1cccc(C(O)c2ccc(-c3ccc(S(N)(=O)=O)cc3)cc2)c1 (stereo not drawn)  Carbonic anhydrase 9 (Homo sapiens, UniProt Q16790)     low group
 9  CC1CCCCN1C(=O)c1ccc(S(N)(=O)=O)cc1 (stereo not drawn)  Carbonic anhydrase 9 (Homo sapiens, UniProt Q16790)    high group
10  NS(=O)(=O)c1ccc(-c2ccc(Cc3ccccc3C(=O)O)cc2)cc1  Carbonic anhydrase 9 (Homo sapiens, UniProt Q16790)     low group
11  NS(=O)(=O)c1ccc(NC(=O)CN2C(=O)NC3(CCCCCC3)C2=O)cc1  Carbonic anhydrase 9 (Homo sapiens, UniProt Q16790)    high group
12  Cc1ccc(C(=O)NNC(=O)c2cc(S(N)(=O)=O)c(Cl)cc2Cl)cc1  Carbonic anhydrase 9 (Homo sapiens, UniProt Q16790)    high group
13         CCOC(=O)c1cc(S(N)(=O)=O)c(S)cc1Cl  Carbonic anhydrase 9 (Homo sapiens, UniProt Q16790)  middle group
14  Cc1ccc(S(=O)(=O)CCC(=O)Nc2ccc(S(N)(=O)=O)cc2)cc1  Carbonic anhydrase 9 (Homo sapiens, UniProt Q16790)    high group
15  CCn1cc(S(N)(=O)=O)c2cc(NC(=O)c3ccnc(Cl)c3)ccc21  Carbonic anhydrase 9 (Homo sapiens, UniProt Q16790)     low group
16        Cc1cc(C)c(-c2cc(C(=O)O)n[nH]2)cc1C  Carbonic anhydrase 9 (Homo sapiens, UniProt Q16790)     low group
17                  O=C(Nc1nnc(S)s1)c1ccccn1  Carbonic anhydrase 9 (Homo sapiens, UniProt Q16790)     low group
18  COc1ccc2c(c1)CCN(S(N)(=O)=O)C2c1ccc(Br)cc1 (racemic)  Carbonic anhydrase 9 (Homo sapiens, UniProt Q16790)  middle group
